# targetUnderTest: Dickkopf-related protein 1 (Homo sapiens)
# assayMethodText: DKK1 binders on small-molecule microarrays, primary screen, biochemical, small-molecule microarray, 635 nm fluorescence scan (AID 1106);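 also: score merges emission near 667 nm with signal to noise over three replicate slides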
# measurementContext: DKK1 binding, higher = more signal

{"compound": "C=CC[C@@]1(C(=O)NCc2ccccc2)N=C(c2ccc(OCCCO)cc2)O[C@@H]1c1ccccc1", "composite z-score": -0.918}
{"compound": "NC(=O)N1C(=O)C2C(C1=O)C1C=C(c3ccc(CO)cc3)C2C(C2CC2)N1Cc1cc2c(cc1Br)OCO2 (stereo not given)", "composite z-score": -0.196}
{"compound": "O=C1c2ccccc2[C@@]2(Cc3ccccc3N(CC(F)(F)F)C2=O)[C@H](c2ccc(CO)cc2)N1Cc1ccccc1C(F)(F)F", "composite z-score": -1.95}
{"compound": "COC(=O)C(CC#Cc1ccc2c(c1)[C@]1(C(=O)N2)[C@H](c2ccccc2OCCO)N2[C@H](c3ccccc3)[C@H](c3ccccc3)OC(=O)[C@H]2[C@@H]1C(=O)N1CCCCCCC1)C(=O)OC", "composite z-score": 2.52}
{"compound": "CC(C)C(=C=CC[C@H](O)c1ccc(OCCO)cc1)C[C@H](O)COCc1ccccc1", "composite z-score": 0.141}
{"compound": "C=CC[C@@H](OC(=O)Nc1ccc(SC)cc1)c1ccc(OCCO)cc1", "composite z-score": -1.42}
{"compound": "[N-]=[N+]=NCc1ccccc1C[C@]1(C(=O)NCc2ccccc2)N=C(c2ccc(OCCCO)cc2)O[C@H]1c1ccccc1", "composite z-score": -1.03}
{"compound": "COC(=O)c1c(CC[C@@H](CO)NC(=O)Nc2ccc(OC)cc2)oc(C(=O)Cc2ccccc2)c1C(=O)OC", "composite z-score": 0.353}
{"compound": "COCCOC(=O)N1C(=O)[C@@]2(c3ccccc31)[C@H](C(=O)Nc1nc3ccccc3s1)[C@H]1C(=O)O[C@H](c3ccccc3)[C@H](c3ccccc3)N1[C@@H]2c1ccc(O)cc1", "composite z-score": 0.709}
{"compound": "C=CCNC(=O)[C@@H]1[C@H]2C(=O)O[C@H](c3ccccc3)[C@H](c3ccccc3)N2[C@H](c2ccc(O)cc2)[C@@]12C(=O)Nc1ccccc12", "composite z-score": 0.131}

====

# assayMethodText: small-molecule microarray binders of probe aLefty2, primary screen, biochemical, biotinylated probe, 635/667 nm fluorescence (AID 1094);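 also: score merges spot fluorescence near 667 nm with spot signal-to-noise ratio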
# measurementContext: higher = more signal
The following compounds are listed with their measured composite z-score values.
measuredMetric: composite z-score

{"compoundString": "COC(=O)c1c(CC[C@@H](CO)NC(=O)Nc2ccc(OC)cc2)oc(C(=O)Cc2ccccc2)c1C(=O)OC", "numericValue": -0.0233}
{"compoundString": "COC(=O)[C@@]1(CCC(=O)OC(C)(C)C)COC(c2ccc(OCCCO)cc2)=N1", "numericValue": 0.0399}
{"compoundString": "O=C1N(CCS(=O)(=O)c2ccccc2)Cc2ccccc2[C@@H]2OC(c3ccc(OCCCO)cc3)=N[C@]12Cc1ccccc1", "numericValue": 0.657}

====

# assayMethodText: cytotoxicity in PAX8-dependent RMG-1 cells, dose response, cell-based, cherry-pick (AID 687029);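 also: cells exposed to compound for 96 hours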
# measurementContext: RMG-1 viability, CellTiterGlo ATP luminescence, 96 h; series mostly up to 35 µM
Measured potencies and affinities stand elsewhere. The source made the active and inactive calls.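 Rule for the calls: active = signal drop whose fitted half-maximal concentration is at most twice the top valid dose, in every test run; inconclusive = mixed calls across runs, poor fit, or flat 30 to 70% inhibition; inactive = wrong direction, flat within 30%, or potency beyond limit.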
measuredMetric: activity change, negative = inhibition

{"compoundString": "CO[C@H]1CN(C)C(=O)c2cc(NC(=O)c3nc4ccccc4s3)ccc2OC[C@H](C)N(Cc2cccnc2)C[C@H]1C", "measuredMetric": "activity change, negative = inhibition", "result": "inactive"}
{"compoundString": "CCC(=O)N1CCN(c2ccc(NC(=O)c3ccc([N+](=O)[O-])o3)cc2Cl)CC1", "measuredMetric": "activity change, negative = inhibition", "result": "inactive"}
{"compoundString": "CCOc1ccc2ccccc2c1/C=N\\NC(=O)OC", "measuredMetric": "activity change, negative = inhibition", "result": "inactive"}
{"compoundString": "O=C(O)CCCN1C(=O)/C(=C\\C(Cl)=C\\c2ccccc2)SC1=S", "measuredMetric": "activity change, negative = inhibition", "result": "inactive"}
{"compoundString": "C[C@H](CO)N1C[C@H](C)[C@H](CN(C)Cc2ccc(Cl)c(Cl)c2)OCCCC[C@H](C)Oc2ccc(NC(=O)Nc3ccccc3)cc2C1=O", "measuredMetric": "activity change, negative = inhibition", "result": "inactive"}
{"compoundString": "C[C@@H]1CN([C@H](C)CO)C(=O)c2cc(NS(=O)(=O)c3ccccc3)ccc2O[C@@H](C)CCCCO[C@H]1CN(C)Cc1ccc(Cl)c(Cl)c1", "measuredMetric": "activity change, negative = inhibition", "result": "inactive"}
{"compoundString": "CN(C)CC#Cc1ccc([C@@H]2[C@H](CO)N3CCCCN(C(=O)Nc4ccc(F)cc4)C[C@@H]23)cc1", "measuredMetric": "activity change, negative = inhibition", "result": "inactive"}
